- target.desc: Serine/threonine-protein kinase WNK3 (Homo sapiens)
- condition: at 10 µM
- Description: Millipore: Percentage of residual kinase activity of WNK3 at 10uM relative to control. Control inhibitor: Phosphoric acid* at 0.3uM. Buffer: 8 mM MOPS pH 7.0, 0.2 mM EDTA
Mark met only for residual activity values smaller than 80%; exact matches and larger values are not met.

{"columns": ["item.smiles", "group.label"],
 "data": [
  ["O=c1cc(N2CCNCC2)oc2c(-c3ccccc3)cccc12", "not met"]
]}

-- ask Is residual activity strictly under 80% for the entry `Nc1ncnc2c1c(-c1ccc(Oc3ccccc3)cc1)cn2C1CCCC1` ?
-- reply met

-- ask Try this molecule too: `COc1ccc2c(c1)c(C1=C(c3c[nH]c4ccccc34)C(=O)NC1=O)cn2CCCN(C)C`
-- reply met

-- ask Same lookup for `O=c1cc(N2CCOCC2)oc2c1ccc1ccccc12` , please.
-- reply not met

-- ask Do the same for `O=C1NC(=O)c2c1c1c3ccccc3[nH]c1n1cncc21` please
-- reply met

-- ask How about `c1ccc(-c2cnc(Nc3ccc(OCCN4CCCC4)cc3)s2)cc1` ?
-- reply not met

-- ask Next entry: `NC(=O)Nc1sc(-c2ccc(F)cc2)cc1C(N)=O`
-- reply met

-- ask What about `CC(C)(C)n1nc(Cc2cccc3ccccc23)c2c(N)ncnc21` ?
-- reply met

-- ask Query `NC(=O)c1ccc(-c2nc(-c3ccc4c(c3)OCCO4)c(-c3ccccn3)[nH]2)cc1` next
-- reply not met

-- ask Same again, this time with `O=C(CCCc1ccc(-c2ccccc2F)cc1)Nc1ccc(O)cc1`
-- reply not met

-- ask Lookup `CCOC(=O)c1c(C)[nH]c(/C=C2\C(=O)Nc3ccccc32)c1C`
-- reply not met

-- ask Please answer likewise for `COc1cc2nccc(Oc3ccc(NC(=S)NC(=O)c4ccccc4C)cc3)c2cc1OC`
-- reply met
